Values from patent US20240018161A1

Target: CFTR-mediated chloride transport in human intestinal epithelial enteroid cells (Homo sapiens)
Sequence (P13569 with tags, fused parts or gaps DEL508-508): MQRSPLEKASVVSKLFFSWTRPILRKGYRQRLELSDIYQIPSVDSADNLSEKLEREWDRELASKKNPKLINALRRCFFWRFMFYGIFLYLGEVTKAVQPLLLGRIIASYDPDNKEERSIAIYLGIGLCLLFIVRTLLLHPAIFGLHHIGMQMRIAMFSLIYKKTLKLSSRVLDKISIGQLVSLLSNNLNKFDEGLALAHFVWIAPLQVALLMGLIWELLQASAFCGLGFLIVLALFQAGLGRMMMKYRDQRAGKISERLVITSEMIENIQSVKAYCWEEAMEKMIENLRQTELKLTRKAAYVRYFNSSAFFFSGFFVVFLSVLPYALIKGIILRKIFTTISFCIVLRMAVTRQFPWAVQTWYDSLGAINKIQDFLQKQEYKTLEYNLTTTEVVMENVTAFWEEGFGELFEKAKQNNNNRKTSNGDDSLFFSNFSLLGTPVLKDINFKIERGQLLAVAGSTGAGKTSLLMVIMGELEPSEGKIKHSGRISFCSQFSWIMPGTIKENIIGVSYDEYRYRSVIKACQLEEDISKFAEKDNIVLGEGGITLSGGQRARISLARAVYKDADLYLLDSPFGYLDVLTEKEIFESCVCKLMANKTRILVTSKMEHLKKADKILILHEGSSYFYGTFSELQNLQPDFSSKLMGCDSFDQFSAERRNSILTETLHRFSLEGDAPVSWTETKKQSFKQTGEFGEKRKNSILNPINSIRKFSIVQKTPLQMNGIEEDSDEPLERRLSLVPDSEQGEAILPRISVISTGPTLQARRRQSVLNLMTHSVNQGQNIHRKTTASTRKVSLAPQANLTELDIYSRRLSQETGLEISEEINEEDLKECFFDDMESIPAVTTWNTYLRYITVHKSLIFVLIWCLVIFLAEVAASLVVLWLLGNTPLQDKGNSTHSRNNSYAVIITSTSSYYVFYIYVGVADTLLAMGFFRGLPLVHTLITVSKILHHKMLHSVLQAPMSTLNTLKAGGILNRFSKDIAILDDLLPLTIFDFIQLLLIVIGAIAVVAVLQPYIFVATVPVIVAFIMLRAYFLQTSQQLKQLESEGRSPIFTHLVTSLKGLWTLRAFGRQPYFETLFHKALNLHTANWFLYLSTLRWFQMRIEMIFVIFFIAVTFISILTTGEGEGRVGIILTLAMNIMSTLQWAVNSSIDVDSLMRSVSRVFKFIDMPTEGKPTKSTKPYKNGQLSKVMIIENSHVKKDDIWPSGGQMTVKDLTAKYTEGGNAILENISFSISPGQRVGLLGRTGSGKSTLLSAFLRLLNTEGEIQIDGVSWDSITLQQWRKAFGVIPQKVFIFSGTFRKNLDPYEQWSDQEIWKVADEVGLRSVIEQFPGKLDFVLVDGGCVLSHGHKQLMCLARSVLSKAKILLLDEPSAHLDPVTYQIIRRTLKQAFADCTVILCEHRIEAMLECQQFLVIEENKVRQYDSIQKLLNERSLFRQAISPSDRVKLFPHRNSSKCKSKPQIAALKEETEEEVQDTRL
Test: Membrane potential dye, Enteroid Assay A
Type: cell-based
Details: percentage of chloride transport of triple combination control (3 μM N-[(6-amino-2-pyridyl)sulfonyl]-6-(3-fluoro-5-isobutoxy-phenyl)-2-[(4S)-2,2,4-trimethylpyrrolidin-1-yl]pyridine-3-carboxamide based)
Description: Base medium (ADF+++) consisted of Advanced DMEM/Ham's F12, 2 mM Glutamax, 10 mM HEPES, […] penicillin/streptomycin. Bath 1 Buffer consisted of 1 mM MgCl2, 160 mM NaCl, 4.5 mM KCl, 10 mM HEPES, 10 mM Glucose, 2 mM CaCl2. […] Briefly, cells were washed 5 times in Bath 1 Buffer. […] Chloride transport was initiated by addition of Chloride Free Dye Stimulation Solution and the fluorescence signal was read for 15 min. […]
parameter.measured: Ent. A Max Activity (%)

{"columns": ["compound", "experimental.value"],
 "data": [
  ["CC(C)CCc1ccccc1-c1cc2nc(n1)NS(=O)(=O)c1cccc(c1)C(=O)N1Cc3ccccc3C(C1)O2 (stereo not drawn)", "++ (++ is 30-60%)"],
  ["Cc1cccc(C)c1-c1cc2nc(n1)NS(=O)(=O)c1cccc(c1)C(=O)N1CC(C)(C)OCC1CO2 (stereo not drawn)", "++ (++ is 30-60%)"]
]}
